The reported measurements were obtained from ChEMBL document CHEMBL1135822.

experiment: Toxicity assessed by Rotarod test (locomotor deficit) in mice.; type: organism-based; settings: mouse, in vivo
TD50 reference
Recorded Endpoint: TD50

| Molecule | Recorded Endpoint | Result |
| --- | --- | --- |
| CCCOC(=O)Cc1cc2c(cc1/C(=N/NC(=O)NC)c1ccc(N)cc1)OCO2 | TD50 | 68.5 µmol/kg |
| CCNC(=O)N1N=C(c2ccc(N)cc2)c2cc3c(cc2CC1=O)OCO3 | TD50 | 134 µmol/kg |
| CCOC(=O)Cc1cc2c(cc1/C(=N/NC(=O)NC)c1ccc(N)cc1)OCO2 | TD50 | 95.1 µmol/kg |
| CNC(=O)NC(=O)Cc1cc2c(cc1Cc1ccc(N)cc1)OCO2 | TD50 | 33.3 µmol/kg |
| CCNC(=O)N/N=C(\c1ccc(N)cc1)c1cc2c(cc1CC(=O)OC)OCO2 | TD50 | 113 µmol/kg |
| COC(=O)Cc1cc2c(cc1Cc1ccc(N)cc1)OCO2 | TD50 | 169 µmol/kg |
| CNC(=O)NC(=O)Cc1cc2c(cc1C(=O)c1ccc(N)cc1)OCO2 | TD50 | 134 µmol/kg |

----------
test: Protective index as the ratio of TD50 to ED50 (from the clonic phase of the audiogenic seizures).; conditions: read-out: PI
Recorded Endpoint: selectivity ratio

| Compound | Recorded Endpoint | Numeric Readout |
| --- | --- | --- |
| CCCCOC(=O)Cc1cc2c(cc1/C(=N/NC(=O)NCC)c1ccc(N)cc1)OCO2 | selectivity ratio | 2.2 |
| CCNC(=O)N/N=C(\c1ccc(N)cc1)c1cc2c(cc1CC(=O)OCC)OCO2 | selectivity ratio | 2.7 |
| CCCCNC(=O)N/N=C(\c1ccc(N)cc1)c1cc2c(cc1CC(=O)OC)OCO2 | selectivity ratio | 2.9 |
| CCNC(=O)N1N=C(c2ccc(N)cc2)c2cc3c(cc2CC1=O)OCO3 | selectivity ratio | 3.8 |
| CCCOC(=O)Cc1cc2c(cc1/C(=N/NC(=O)NC)c1ccc(N)cc1)OCO2 | selectivity ratio | 3.8 |
| CCCCOC(=O)Cc1cc2c(cc1/C(=N/NC(=O)NC)c1ccc(N)cc1)OCO2 | selectivity ratio | 2.7 |
| CCCCNC(=O)N1N=C(c2ccc(N)cc2)c2cc3c(cc2CC1=O)OCO3 | selectivity ratio | 2.8 |
| CC1=NN=C(c2ccc(N)cc2)c2cc3c(cc2C1)OCO3 [GYKI-52466] | selectivity ratio | 2.1 |
| CCCNC(=O)N1N=C(c2ccc(N)cc2)c2cc3c(cc2CC1=O)OCO3 | selectivity ratio | 2.6 |
| CCCOC(=O)Cc1cc2c(cc1/C(=N/NC(=O)NCC)c1ccc(N)cc1)OCO2 | selectivity ratio | 3.4 |

----------
experiment: Protective index as the ratio of TD50 to ED50 (from the clonic phase of the audiogenic seizures).; details: read-out: PI

| Compound | selectivity ratio |
| --- | --- |
| CCNC(=O)N/N=C(\c1ccc(N)cc1)c1cc2c(cc1CC(=O)OC)OCO2 | 3.7 |
| Nc1ccc(C2=NNC(=O)Cc3cc4c(cc32)OCO4)cc1 | 6.3 |
| CNC(=O)N/N=C(\c1ccc(N)cc1)c1cc2c(cc1CC(=O)OC)OCO2 (stereo in doubt; 29) | 3.7 |
| CNC(=O)NC(=O)Cc1cc2c(cc1Cc1ccc(N)cc1)OCO2 | 3.6 |
| CCCNC(=O)N/N=C(\c1ccc(N)cc1)c1cc2c(cc1CC(=O)OC)OCO2 | 3.1 |
| CCOC(=O)Cc1cc2c(cc1/C(=N/NC(=O)NC)c1ccc(N)cc1)OCO2 | 3.3 |
| CNC(=O)NC(=O)Cc1ccc2c(c1)OCO2 | 2.5 |
| CNC(=O)NC(=O)Cc1cc2c(cc1C(=O)c1ccc(N)cc1)OCO2 | 3.4 |
| COC(=O)Cc1cc2c(cc1Cc1ccc(N)cc1)OCO2 | 3.1 |
